Tested on: E. coli ATCC 11775
Experiment: in vivo test against experimental intraperitoneal infection in mice
Design: species or system E. coli in female mice of the NMRI strain
Settings: Escherichia coli, ATCC11775, sc, 168 h; subcutaneous, one treatment 1 hour after i.p. infection, observation 7 days; read-out: ED50 (dose at which 50% of the animals survived)
Each entry below carries its reported ED50.

- CC(=O)OCC1=C(C(=O)O)N2C(=O)[C@@H](NC(=O)C(NC(=O)Nc3cnc(Nc4ccc(S(N)(=O)=O)cc4)nc3O)c3csc(N)n3)[C@H]2SC1 (stereo partly drawn) [Compound E]: 0.1 to 0.3 mg/kg
- CCN1CCN(C(=O)N[C@@H](C(=O)N[C@@H]2C(=O)N3C(C(=O)O)=C(CSc4nnnn4C)CS[C@H]23)c2ccc(O)cc2)C(=O)C1=O [Cefaperazone (T 1551), reference compound]: 3.1 mg/kg

Shifting focus to the compound that follows.
In: Form: Entry = Cn1nnnc1SCC1=C(C(=O)O)N2C(=O)[C@@H](NC(=O)C(NC(=O)Nc3cnc(NC4CCC(O)CC4)nc3O)c3csc(N)n3)[C@H]2SC1 (stereo partly drawn) [D] | System = E. coli ATCC 11775 | ED50 = ____
Out: < 0.3 mg/kg

----------
Endpoint: MIC. System: Prot. rettg. BC 17. Items follow.
Number in µg/mL, nothing else.

In the examples that follow, each entry is paired with its recorded MIC.
• Cn1nnnc1SCC1=C(C(=O)O)N2C(=O)[C@@H](NC(=O)C(NC(=O)Nc3cnc(Nc4ccc(S(N)(=O)=O)cc4)nc3O)c3csc(N)n3)[C@H]2SC1 (stereo partly drawn) [F] = 0.25
• CO/N=C(\C(=O)N[C@@H]1C(=O)N2C(C(=O)O)=C(COC(N)=O)CS[C@H]12)c1ccco1 [Cefuroxime, reference compound] = 2

In: Form: Entry = Cn1nnnc1SCC1=C(C(=O)O)N2C(=O)[C@@H](NC(=O)C(NC(=O)Nc3cnc(NCCCO)nc3O)c3csc(N)n3)[C@H]2SC1 (stereo partly drawn) [C] | System = Prot. rettg. BC 17 | MIC = ____
Out: 0.25

In: Form: Entry = CC(=O)OCC1=C(C(=O)O)N2C(=O)[C@@H](NC(=O)C(NC(=O)Nc3cnc(Nc4ccc(S(N)(=O)=O)cc4)nc3O)c3csc(N)n3)[C@H]2SC1 (stereo partly drawn) [Compound E] | System = Prot. rettg. BC 17 | MIC = ____
Out: 0.12

In: Form: Entry = Cn1nnnc1SCC1=C(C(=O)O)N2C(=O)[C@@H](NC(=O)C(NC(=O)Nc3cnc(NCc4ccc(O)cc4)nc3O)c3csc(N)n3)[C@H]2SC1 (stereo partly drawn) [G] | System = Prot. rettg. BC 17 | MIC = ____
Out: 0.06

----------
Endpoint: MIC. System: Enterobacter cloaceae ATCC 13 047. Items follow.
Number in µg/mL, nothing else.

In the examples that follow, each entry is paired with its recorded MIC.
* Cn1nnnc1SCC1=C(C(=O)O)N2C(=O)[C@@H](NC(=O)C(NC(=O)Nc3cnc(NCc4ccc(O)cc4)nc3O)c3csc(N)n3)[C@H]2SC1 (stereo partly drawn) [G] | 0.12
* CO/N=C(\C(=O)N[C@@H]1C(=O)N2C(C(=O)O)=C(COC(N)=O)CS[C@H]12)c1ccco1 [Cefuroxime, reference compound] | 32

Shifting focus to the molecule that follows.
In: Form: Entry = Cn1nnnc1SCC1=C(C(=O)O)N2C(=O)[C@@H](NC(=O)C(NC(=O)Nc3cnc(NCCCO)nc3O)c3csc(N)n3)[C@H]2SC1 (stereo partly drawn) [C] | System = Enterobacter cloaceae ATCC 13 047 | MIC = ____
Out: 0.5

----------
System: Prot. rettg. BC 17
Test: serial dilution test in the microtiter system, minimum inhibitory concentration
Type: cell-based, Proteus rettgeri
Conditions: Providencia rettgeri, 37° C., 18 to 20 hours
Each entry below carries its reported MIC.
Number in µg/mL, nothing else.

In the examples that follow, each entry is paired with its recorded MIC.
* CCCNc1ncc(NC(=O)NC(C(=O)N[C@@H]2C(=O)N3C(C(=O)O)=C(CSc4nnnn4C)CS[C@H]23)c2csc(N)n2)c(O)n1 (stereo partly drawn) | 0.12
* Cn1nnnc1SCC1=C(C(=O)O)N2C(=O)[C@@H](NC(=O)C(NC(=O)Nc3cnc(NC4CCC(O)CC4)nc3O)c3csc(N)n3)[C@H]2SC1 (stereo partly drawn) | 0.12

In: Request the reported MIC associated with Cn1nnnc1SCC1=C(C(=O)O)N2C(=O)[C@@H](NC(=O)C(NC(=O)Nc3cnc(C4CC4)nc3O)c3csc(N)n3)[C@H]2SC1 (stereo partly drawn)
Out: 0.12

----------
Endpoint: MIC. System: Enterobacter cloaceae ATCC 13 047. Items follow.

* CC(=O)OCC1=C(C(=O)O)N2C(=O)[C@@H](NC(=O)C(NC(=O)Nc3cnc(Nc4ccc(S(N)(=O)=O)cc4)nc3O)c3csc(N)n3)[C@H]2SC1 (stereo partly drawn) | 0.25 µg/mL
* Cc1nnc(SCC2=C(C(=O)O)N3C(=O)[C@@H](NC(=O)Cn4cnnn4)[C@H]3SC2)s1 [Cefazoline, reference compound] | > 128 µg/mL

Shifting focus to the compound that follows.
In: Request the reported MIC associated with Cn1nnnc1SCC1=C(C(=O)O)N2C(=O)[C@@H](NC(=O)C(NC(=O)Nc3cnc(Nc4ccc(S(N)(=O)=O)cc4)nc3O)c3csc(N)n3)[C@H]2SC1 (stereo partly drawn)
Out: 0.5 µg/mL

----------
Endpoint: MIC. System: Enterobacter cloaceae ATCC 13 047. Items follow.

In the examples that follow, each entry is paired with its recorded MIC.
• Cn1nnnc1SCC1=C(C(=O)O)N2C(=O)[C@@H](NC(=O)C(NC(=O)Nc3cnc(C4CC4)nc3O)c3csc(N)n3)[C@H]2SC1 (stereo partly drawn) = 0.5 µg/mL
• CCCNc1ncc(NC(=O)NC(C(=O)N[C@@H]2C(=O)N3C(C(=O)O)=C(CSc4nnnn4C)CS[C@H]23)c2csc(N)n2)c(O)n1 (stereo partly drawn) = 0.25 µg/mL

Shifting focus to the compound that follows.
In: Form: Entry = Cn1nnnc1SCC1=C(C(=O)O)N2C(=O)[C@@H](NC(=O)C(NC(=O)Nc3cnc(NC4CCC(O)CC4)nc3O)c3csc(N)n3)[C@H]2SC1 (stereo partly drawn) | System = Enterobacter cloaceae ATCC 13 047 | MIC = ____
Out: 0.25 µg/mL

----------
System: Escherichia coli ATCC 11 775
Assay: serial dilution test in the microtiter system, minimum inhibitory concentration
Type: cell-based
Details: E. coli ATCC 11775, 37° C., 18 to 20 hours
Method: The tests were performed using the serial dilution test in the microtiter system. The effect of the text compounds on bacteriostasis was examined at the following concentrations: 128, 64, 32, 16, 8, 4, 2, 1, 0.5, 0.25, 0.12, 0.06, 0.03, and 0.015 μg/ml. The nutrient medium consisted of 10 gm of peptone, 8 g of meat extract oxoid, 3 g of sodium chloride, and 2 g of sec. sodium phosphate diluted with distilled water to […] (pH 7.2-7.4). The age of the primary cultures was approximately 20 hours. […]
Each entry below carries its reported MIC.
Write the numeric value and append its unit.

In the examples that follow, each entry is paired with its recorded MIC.
* Cc1nnc(SCC2=C(C(=O)O)N3C(=O)[C@@H](NC(=O)Cn4cnnn4)[C@H]3SC2)s1 [Cefazoline, reference compound] | 4 µg/mL
* CO/N=C(\C(=O)N[C@@H]1C(=O)N2C(C(=O)O)=C(COC(N)=O)CS[C@H]12)c1ccco1 [Cefuroxime, reference compound] | 8 µg/mL
* Cn1nnnc1SCC1=C(C(=O)O)N2C(=O)[C@@H](NC(=O)C(NC(=O)Nc3cnc(Nc4ccc(S(N)(=O)=O)cc4)nc3O)c3csc(N)n3)[C@H]2SC1 (stereo partly drawn) [F] | 0.06 µg/mL
* Cn1nnnc1SCC1=C(C(=O)O)N2C(=O)[C@@H](NC(=O)C(NC(=O)Nc3cnc(NCCCO)nc3O)c3csc(N)n3)[C@H]2SC1 (stereo partly drawn) [C] | 0.06 µg/mL
* CCCNc1ncc(NC(=O)NC(C(=O)N[C@@H]2C(=O)N3C(C(=O)O)=C(CSc4nnnn4C)CS[C@H]23)c2csc(N)n2)c(O)n1 (stereo partly drawn) [B] | 0.06 µg/mL

In: Request the reported MIC associated with Cn1nnnc1SCC1=C(C(=O)O)N2C(=O)[C@@H](NC(=O)C(NC(=O)Nc3cnc(NC4CCC(O)CC4)nc3O)c3csc(N)n3)[C@H]2SC1 (stereo partly drawn) [D]
Out: 0.06 µg/mL

In: Request the reported MIC associated with Cn1nnnc1SCC1=C(C(=O)O)N2C(=O)[C@@H](NC(=O)C(NC(=O)Nc3cnc(C4CC4)nc3O)c3csc(N)n3)[C@H]2SC1 (stereo partly drawn) [A]
Out: 0.03 µg/mL

In: Request the reported MIC associated with CC(=O)OCC1=C(C(=O)O)N2C(=O)[C@@H](NC(=O)C(NC(=O)Nc3cnc(Nc4ccc(S(N)(=O)=O)cc4)nc3O)c3csc(N)n3)[C@H]2SC1 (stereo partly drawn) [Compound E]
Out: 0.03 µg/mL

In: Request the reported MIC associated with Cn1nnnc1SCC1=C(C(=O)O)N2C(=O)[C@@H](NC(=O)C(NC(=O)Nc3cnc(NCc4ccc(O)cc4)nc3O)c3csc(N)n3)[C@H]2SC1 (stereo partly drawn) [G]
Out: 0.03 µg/mL
